- System: growth hormone secretion
- assay.info: GHRP induced growth hormone secretion, intravenous administration (Rat IV)
- Assay type: in vivo
- measurement.setup: Table III; iv injection, serum GH 10 min after injection
Non-standard residues stand in square brackets, D forms with d. Residues, ends and D or L forms follow the SMILES beside them. d2Nal = N[C@H](Cc1ccc2ccccc2c1)C(=O)O; Inp = O=C(O)C1CCNCC1; Ava = NCCCCC(=O)O; βAla = NCCC(=O)O
RAT IV ED50 values, listed per item
# do not omit the unit; it follows the number

molecule | recorded.measurement
NCCCCC(=O)N[C@H](Cc1ccc2ccccc2c1)C(=O)N[C@H](Cc1c[nH]c2ccccc12)C(=O)N[C@@H](Cc1ccccc1)C(=O)N[C@@H](CCCCN)C(N)=O [(Ava) b w F K amide] (H-[Ava][d2Nal][dW]FK-NH2) | 11.8 µg

Alright, here's another molecule for you.
Problem: // lookup RAT IV ED50 | system=growth hormone secretion | key= NC(=O)CCNC(=O)[C@H](Cc1ccccc1)NC(=O)[C@@H](Cc1ccc2ccccc2c1)NC(=O)[C@@H](Cc1ccc2ccccc2c1)NC(=O)C1CCNCC1 [(inip) b b F bA amide] (H-[Inp][d2Nal][d2Nal]F[βAla]-NH2)
Solution: 2 µg

====

- assayed.target: rat pituitary cells (Rattus norvegicus, UniProt O08725)
- Sequence (O08725 whole entry): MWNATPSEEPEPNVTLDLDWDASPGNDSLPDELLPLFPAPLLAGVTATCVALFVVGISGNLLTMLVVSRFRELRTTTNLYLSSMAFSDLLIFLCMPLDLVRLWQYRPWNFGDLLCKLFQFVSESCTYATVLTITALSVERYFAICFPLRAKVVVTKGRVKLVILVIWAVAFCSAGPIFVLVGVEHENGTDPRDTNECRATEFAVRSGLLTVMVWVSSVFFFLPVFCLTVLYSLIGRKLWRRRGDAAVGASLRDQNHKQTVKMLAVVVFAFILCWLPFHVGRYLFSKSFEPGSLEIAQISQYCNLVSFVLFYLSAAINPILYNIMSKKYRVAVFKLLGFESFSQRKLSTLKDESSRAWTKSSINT
- measurement.setup: read-out: PIT Cell EC50; Table IV, formula III compounds; GH release, 15 min incubation
Starred links: 1 amine or outer side, 2 acyl side, 3 side chain; linkers in the order of their positions; H or OH if unused. Non-standard residues stand in square brackets, D forms with d. Residues, ends and D or L forms follow the SMILES beside them. dNMe2Nal = CN[C@H](Cc1ccc2ccccc2c1)C(=O)O; d2Nal = N[C@H](Cc1ccc2ccccc2c1)C(=O)O; Ethylenediamine = C(CN[*:2])N[*:1]; NMeF = CN[C@@H](Cc1ccccc1)C(=O)O; αMeF = C[C@](N)(Cc1ccccc1)C(=O)O; Inp = O=C(O)C1CCNCC1; Ava = NCCCCC(=O)O; GABA = NCCCC(=O)O
Listed compounds paired with reported EC50
Express it in nM; write the number only.

compound | property.name | recorded.measurement
CN(C(=O)CCCCN)[C@H](Cc1ccc2ccccc2c1)C(=O)N[C@H](Cc1ccc2ccccc2c1)C(=O)N[C@@H](Cc1ccccc1)C(N)=O [(Ava) nmb b F amide] (H-[Ava][dNMe2Nal][d2Nal]F-NH2) | EC50 | 1.6
NC(=O)[C@H](Cc1ccccc1)NC(=O)[C@@H](Cc1c[nH]c2ccccc12)NC(=O)[C@@H](Cc1c[nH]c2ccccc12)NC(=O)C1CCNCC1 [(inip) w w F amide] (H-[Inp][dW][dW]F-NH2) | EC50 | 0.9
CN(C(=O)[C@@H](Cc1ccc2ccccc2c1)NC(=O)C1CCNCC1)[C@H](Cc1ccc2ccccc2c1)C(=O)NC1CCNCC1 | EC50 | 0.5
CN(C(=O)[C@@H](Cc1ccc2ccccc2c1)NC(=O)[C@@H](Cc1ccc2ccccc2c1)NC(=O)C1CCNCC1)[C@@H](Cc1ccccc1)C(N)=O [(inip) bb nmF amide] (H-[Inp][d2Nal][d2Nal][NMeF]-NH2) | EC50 | 0.6
NCCNC(=O)[C@@H](Cc1ccc2ccccc2c1)NC(=O)[C@@H](Cc1ccc2ccccc2c1)NC(=O)C1CCNCC1 [(inip) b b tam] (H-[Inp]-[d2Nal]-[d2Nal]-Ethylenediamine) | EC50 | 11
C[C@@](Cc1ccccc1)(NC(=O)[C@@H](Cc1ccc2ccccc2c1)NC(=O)[C@@H](Cc1ccc2ccccc2c1)NC(=O)C1CCNCC1)C(N)=O [(inip) b b amF amide] (H-[Inp][d2Nal][d2Nal][αMeF]-NH2) | EC50 | 0.5
NC(=O)[C@H](Cc1ccccc1)NC(=O)[C@@H](Cc1c[nH]c2ccccc12)NC(=O)[C@@H](Cc1ccc2ccccc2c1)NC(=O)C1CCNCC1 [(inip) b w F amide, (inip)-DβNal-(D-Trp)-Phe-amide] (H-[Inp][d2Nal][dW]F-NH2) | EC50 | 0.1
CN(C(=O)C1CCNCC1)[C@H](Cc1ccc2ccccc2c1)C(=O)N[C@H](Cc1ccc2ccccc2c1)C(=O)N[C@@H](Cc1ccccc1)C(=O)O [(inip) nmb b F acid] (H-[Inp][dNMe2Nal][d2Nal]F-OH) | EC50 | 1.4
NCCCCCNC(=O)[C@@H](Cc1ccc2ccccc2c1)NC(=O)[C@@H](Cc1ccc2ccccc2c1)NC(=O)C1CCNCC1 | EC50 | 43
NCCCCN(CCc1ccccc1)C(=O)[C@@H](Cc1ccc2ccccc2c1)NC(=O)[C@@H](Cc1ccc2ccccc2c1)NC(=O)C1CCNCC1 | EC50 | 0.9

Problem: Any idea what its EC50 is? The compound is NCCCC(=O)N[C@H](Cc1ccc2ccccc2c1)C(=O)N[C@H](Cc1ccc2ccccc2c1)C(=O)N[C@@H](Cc1ccccc1)C(N)=O [(Ab) b b F amide] (H-[GABA][d2Nal][d2Nal]F-NH2)
Solution: 3.1

Problem: What value of measured EC50 is listed for O=C(N[C@H](Cc1ccc2ccccc2c1)C(=O)N[C@H](Cc1ccc2ccccc2c1)C(=O)N[C@@H](Cc1ccccc1)C(=O)O)C1CCNCC1 [(inip) b b F acid, (inip)-DβNal-DβNal-Phe] (H-[Inp][d2Nal][d2Nal]F-OH) ?
Solution: 0.2

Problem: May I ask what EC50 has been recorded for NC(=O)[C@@H]1CCCN1C(=O)[C@@H](Cc1ccc2ccccc2c1)NC(=O)[C@@H](Cc1ccc2ccccc2c1)NC(=O)C1CCNCC1 [(inip) b b P amide] (H-[Inp][d2Nal][d2Nal]P-NH2) ?
Solution: 9

Problem: Any idea what its EC50 is? The compound is NC(=O)[C@@H](Cc1ccccc1)NC(=O)[C@@H](Cc1ccc2ccccc2c1)NC(=O)[C@@H](Cc1ccc2ccccc2c1)NC(=O)C1CCNCC1 [(inip) b b f amide] (H-[Inp][d2Nal][d2Nal][dF]-NH2)
Solution: 0.6

Problem: Need EC50 of NC(=O)[C@H](Cc1ccccc1)NC(=O)[C@@H](Cc1ccc2ccccc2c1)NC(=O)[C@@H](Cc1ccc2ccccc2c1)NC(=O)C1CCNCC1 [(inip) b b F amide, (inip)-DβNal-DβNal-Phe-amide] (H-[Inp][d2Nal][d2Nal]F-NH2) , thanks.
Solution: 0.28

Where do these numbers come from? They come from patent US7094869B2.
